pIC50: −log10 of the molar value.
Study the reported pIC50 values for Human Factor XIIa (Homo sapiens, UniProt P00748) given below; they originate from different publications.

Some entries whose results are on file:
> print(dat)
                                   molecule    test.value
1  CC(C)N1CCN(CCCNc2ncc(Cl)cc2C(=O)NCc2ccc3c(N)nccc3c2)CC1  5.52 to 6.00
2  Nc1nccc2cc(CNC(=O)c3cc(Cl)c(COCCCN4CCCCC4)s3)ccc12  5.52 to 6.00
3  CN1CCC(CCc2csc(C(=O)NCc3ccc4c(N)nccc4c3)n2)CC1        > 6.00

Consider the record given below.
Record CC(C)S(=O)(=O)N1CCc2c(N)nn(C(=O)C3CCNc4ccccc43)c2C1 (stereo not shown) , field pIC50: 4.55

* * *

Study the reported pIC50 values for Human Factor XIIa (Homo sapiens) given below; they originate from different publications.
pIC50: −log10 of the molar value.
Binary classification by pIC50, with 6 as an inclusive lower bound for fulfilled; all other cases are not fulfilled.

> print(dat)
                                   compound                       test.system            cat
1  CS(=O)(=O)N1CCc2c(N)nn(C(=O)C3CCNc4c(F)cccc43)c2C1 (centres unmarked)  Human Factor XIIa (Homo sapiens)  not fulfilled
2  COC(=O)N1CCc2c(N)nn(C(=O)C3CCNc4ccccc43)c2C1 (centres unmarked)  Human Factor XIIa (Homo sapiens)  not fulfilled
3    CCn1ccc2c(C(=O)n3nc4c(c3N)CCCC4)cccc21  Human Factor XIIa (Homo sapiens)      fulfilled
4  Cc1cc2c(C(=O)n3nc4c(c3N)CCN(Cc3ccccc3)C4)cccc2[nH]1  Human Factor XIIa (Homo sapiens)      fulfilled

# input Answer whether pIC50 of CC(C)(C)S(=O)(=O)N1CCc2c(N)nn(C(=O)C3CCNc4ccc(F)cc43)c2C1 (centres unmarked) is greater than or equal to 6.
# output not fulfilled

# input Answer whether pIC50 of Cc1cc2c(C(=O)n3nc4c(c3N)CCCC4)cccc2[nH]1 (single isomer, unassigned) is greater than or equal to 6.
# output fulfilled

# input Answer whether pIC50 of Nc1c2c(nn1C(=O)[C@@H]1CCNc3ccc(F)cc31)CC[C@H](F)C2 (single isomer, unassigned) is greater than or equal to 6.
# output not fulfilled

# input Answer whether pIC50 of `CN1CCC(COc2ccc(NCc3ccc4c(N)nccc4c3)cn2)CC1` is greater than or equal to 6.
# output fulfilled

# input Answer whether pIC50 of Nc1c2c(nn1C(=O)C1CCNc3cc(C(F)(F)F)ccc31)CCCC2 (centres unmarked) is greater than or equal to 6.
# output not fulfilled

# input Answer whether pIC50 of Nc1nn(C(=O)[C@@H]2CCNc3ccc(Cl)cc32)c2c1C[C@H](O)CC2 (single isomer, unassigned) is greater than or equal to 6.
# output not fulfilled

# input Answer whether pIC50 of `CN1CCC(CNc2ncc(Br)cc2C(=O)NCc2ccc3c(N)nccc3c2)CC1` is greater than or equal to 6.
# output fulfilled

* * *

Study the reported IC50 values for Human Factor XIIa (Homo sapiens) given below; they originate from different publications.

Some entries whose results are on file:
> print(dat)
                                   molecule   test.value
1  COc1ccc(-n2cncn2)c(CNC(=O)c2nccnc2NCC2CCN(C)CC2)c1F  10 to 40 µM
2  CN(Cc1sc(C(=O)NCc2ccc3c(N)nccc3c2)cc1Cl)CC1CCN(c2ccncc2)CC1   3 to 10 µM
3      Cc1cc(N)nc(C)c1CNC(=O)c1cc(Cl)c(C)s1  40 to 70 µM

Consider the record given below.
Record CS(=O)(=O)N1CCc2c(nn(C(=O)C3CCNc4c3cccc4C(F)(F)F)c2N)C1 (stereo not shown) , field IC50: 0.15 µM
